These measurements were taken from the Immune Epitope Database (IEDB).

Biological target: HLA-B*46:01
Assay: IEDB peptide-MHC binding, purified MHC/direct/fluorescence; filed as Kd, often an IC50 or EC50 that approximates it; bounds were set here for any values at or beyond the usual limits of such assays
Details: source organism: Giardia lamblia ATCC 50803
assay.readout: Kd

[in] Name the recorded Kd for `KSNRIPFLY` .
[out] ≥ 20 µM

====

Target: HLA-B*39:01
Assay: IEDB peptide-MHC binding, purified MHC/direct/fluorescence; filed as Kd, often an IC50 or EC50 that approximates it; bounds were set here for any values at or beyond the usual limits of such assays
Conditions: source organism: Bacillus anthracis str. A0465
pKd: −log10 of the molar value.
assay.readout: pKd

[in] Name the recorded pKd for `RLLRFTGLF` .
[out] ≤ 4.70

====

Reported pIC50 values are given for each entry in this list.
Biological target: HLA-A*02:01
Experiment: IEDB peptide-MHC binding, purified MHC/competitive/fluorescence; bounds were set here for any values at or beyond the usual limits of such assays
Details: source organism: Zaire ebolavirus
Convention used: pIC50 is expressed as -log10 of the molar concentration.

[[record]]
sequence_input = "EYLFEVDNL"
assay_readout = "pIC50"
value = 4.36

[[record]]
sequence_input = "FLWVIILFQ"
assay_readout = "pIC50"
value = 4.89

[[record]]
sequence_input = "GVKRLEELL"
assay_readout = "pIC50"
value = 4.31

[[record]]
sequence_input = "AKLTEAITA"
assay_readout = "pIC50"
value = 4.54


[in] API: value(readout=pIC50, system=HLA-A*02:01) for record `NLEEICQLI`
[out] 4.19

[in] API: value(readout=pIC50, system=HLA-A*02:01) for record `ITDKIDQII`
[out] 5.30

[in] API: value(readout=pIC50, system=HLA-A*02:01) for record `FFLWVIILF`
[out] 5.13

[in] API: value(readout=pIC50, system=HLA-A*02:01) for record `RGTTFAEGV`
[out] 5.03

[in] API: value(readout=pIC50, system=HLA-A*02:01) for record `LMLCLHHAY`
[out] 4.42

====

Molecular target: HLA-B*39:01
Test: IEDB peptide-MHC binding, purified MHC/competitive/fluorescence; filed as Kd, often an IC50 or EC50 that approximates it; bounds were set here for any values at or beyond the usual limits of such assays
Details: source organism: Mycobacterium tuberculosis variant bovis BCG str. Pasteur 1173P2
assay.readout: pKd
Convention used: pKd is expressed as -log10 of the molar concentration.

[in] Name the recorded pKd for `KPIPHRTVL` .
[out] 7.73

====

Target: HLA-A*30:01
Assay: IEDB peptide-MHC binding, purified MHC/direct/fluorescence; filed as Kd, often an IC50 or EC50 that approximates it; bounds were set here for any values at or beyond the usual limits of such assays
Details: source organism: Vibrio cholerae
assay.readout: Kd (nM)
Numeric answer only, unit nM assumed.

[in] Name the recorded Kd for `GKFFAQAFL` .
[out] 753

====

Biological target: HLA-A*01:01
Test: IEDB peptide-MHC binding, purified MHC/direct/fluorescence; filed as Kd, often an IC50 or EC50 that approximates it; bounds were set here for any values at or beyond the usual limits of such assays
Settings: source organism: Influenza A virus (A/swine/Cotes d'Armor/800/00(H1N2))
assay.readout: Kd

[in] Name the recorded Kd for `GMDPRMCSL` .
[out] ≥ 20 µM

====

Biological target: HLA-B*40:01
Test: IEDB peptide-MHC binding, purified MHC/competitive/radioactivity; filed as Kd, often an IC50 or EC50 that approximates it; bounds were set here for any values at or beyond the usual limits of such assays
Conditions: source organism: Dengue virus 3 Martinique/1243/1999
assay.readout: Kd (nM)
Numeric answer only, unit nM assumed.

[in] Name the recorded Kd for `IEQMANGIAL` .
[out] 2.57

====

Biological target: HLA-A*01:01
Test: IEDB peptide-MHC binding, purified MHC/competitive/radioactivity; filed as Kd, often an IC50 or EC50 that approximates it; bounds were set here for any values at or beyond the usual limits of such assays
Conditions: source organism: Mammarenavirus lassaense
pKd: −log10 of the molar value.
assay.readout: pKd

[in] Name the recorded pKd for `AGFTAGLSY` .
[out] ≤ 4.68

====

Target: HLA-A*30:01
Assay: IEDB peptide-MHC binding, purified MHC/direct/fluorescence; filed as Kd, often an IC50 or EC50 that approximates it; bounds were set here for any values at or beyond the usual limits of such assays
Conditions: source organism: Giardia intestinalis
assay.readout: Kd

[in] API: value(readout=Kd, system=HLA-A*30:01) for record `DYAMHGTVF`
[out] ≥ 58.5 µM

====

Biological target: HLA-A*11:01
Test: IEDB peptide-MHC binding, purified MHC/competitive/fluorescence; bounds were set here for any values at or beyond the usual limits of such assays
Settings: source organism: Vaccinia virus
assay.readout: IC50 (µM)
Numeric answer only, unit µM assumed.

[in] Name the recorded IC50 for `LVRSETKQK` .
[out] 7.02

====

Biological target: HLA-A*69:01
Assay: IEDB peptide-MHC binding, purified MHC/direct/fluorescence; filed as Kd, often an IC50 or EC50 that approximates it; bounds were set here for any values at or beyond the usual limits of such assays
Settings: source organism: Bacillus anthracis str. A0465
pKd: −log10 of the molar value.
assay.readout: pKd

[in] Name the recorded pKd for `RLLRFTGLF` .
[out] ≤ 4.70

====

Target: HLA-B*15:17
Assay: IEDB peptide-MHC binding, purified MHC/competitive/fluorescence; filed as Kd, often an IC50 or EC50 that approximates it; bounds were set here for any values at or beyond the usual limits of such assays
Conditions: source organism: Salmonella enterica subsp. enterica serovar Paratyphi A str. AKU_12601
pKd: −log10 of the molar value.
assay.readout: pKd

[in] Name the recorded pKd for `AMDTHLYFE` .
[out] ≤ 4.70

====

Molecular target: HLA-B*46:01
Experiment: IEDB peptide-MHC binding, purified MHC/competitive/fluorescence; filed as Kd, often an IC50 or EC50 that approximates it; bounds were set here for any values at or beyond the usual limits of such assays
Details: source organism: Choclo virus
assay.readout: Kd

[in] API: value(readout=Kd, system=HLA-B*46:01) for record `VMGVIGFGF`
[out] ≥ 20 µM

====

Target: HLA-A*02:06
Assay: IEDB peptide-MHC binding, purified MHC/competitive/fluorescence; filed as Kd, often an IC50 or EC50 that approximates it; bounds were set here for any values at or beyond the usual limits of such assays
Settings: source organism: Orthomarburgvirus marburgense
assay.readout: pKd
Convention used: pKd is expressed as -log10 of the molar concentration.

[in] Name the recorded pKd for `ISDPLTSGL` .
[out] 7.69

====

Molecular target: HLA-B*08:01
Assay: IEDB peptide-MHC binding, purified MHC/direct/fluorescence; filed as Kd, often an IC50 or EC50 that approximates it; bounds were set here for any values at or beyond the usual limits of such assays
Conditions: source organism: Pseudomonas aeruginosa UCBPP-PA14
assay.readout: Kd

[in] API: value(readout=Kd, system=HLA-B*08:01) for record `RTGTRLLGR`
[out] ≥ 20 µM

====

Biological target: HLA-B*08:01
Test: IEDB peptide-MHC binding, purified MHC/competitive/radioactivity; filed as Kd, often an IC50 or EC50 that approximates it; bounds were set here for any values at or beyond the usual limits of such assays
Conditions: source organism: Vaccinia virus Copenhagen
assay.readout: Kd

[in] Name the recorded Kd for `FNKGHFTRL` .
[out] 16.3 nM

====

Molecular target: HLA-A*01:01
Assay: IEDB peptide-MHC binding, purified MHC/competitive/fluorescence; filed as Kd, often an IC50 or EC50 that approximates it; bounds were set here for any values at or beyond the usual limits of such assays
Conditions: source organism: Salmonella enterica subsp. enterica serovar Typhi
assay.readout: pKd
Convention used: pKd is expressed as -log10 of the molar concentration.

[in] API: value(readout=pKd, system=HLA-A*01:01) for record `WVAGVQLLY`
[out] 7.41

====

Target: HLA-A*02:19
Experiment: IEDB peptide-MHC binding, purified MHC/competitive/fluorescence; filed as Kd, often an IC50 or EC50 that approximates it; bounds were set here for any values at or beyond the usual limits of such assays
Conditions: source organism: Campylobacter jejuni subsp. jejuni NCTC 11168 = ATCC 700819
pKd: −log10 of the molar value.
assay.readout: pKd

[in] Name the recorded pKd for `LELAEITAE` .
[out] ≤ 4.70

====

Reported pKd values are given for each entry in this list.
Target: HLA-A*68:01
Test: IEDB peptide-MHC binding, purified MHC/competitive/radioactivity; filed as Kd, often an IC50 or EC50 that approximates it; bounds were set here for any values at or beyond the usual limits of such assays
Conditions: source organism: Mammarenavirus brazilense
pKd: −log10 of the molar value.

[in] Name the recorded pKd for `IMAYVNQAH` .
[out] ≤ 4.63

[in] Name the recorded pKd for `FIMAYVNQAH` .
[out] 5.46

[in] Name the recorded pKd for `VTLDFTKFH` .
[out] ≤ 4.55
